// values below are reported Kd
Molecular target: T1, recombinant DR3 (DR3-His tag) (human, UniProt Q93038 25-199)
T1 chain: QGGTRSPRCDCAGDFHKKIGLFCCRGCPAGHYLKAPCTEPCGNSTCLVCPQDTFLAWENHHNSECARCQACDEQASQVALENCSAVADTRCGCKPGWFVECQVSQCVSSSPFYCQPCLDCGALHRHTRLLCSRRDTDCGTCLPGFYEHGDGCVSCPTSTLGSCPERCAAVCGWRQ
Assay: SPR
I'd appreciate it if you wrote the number followed by its unit.

Noted for clone 4-4 IgG2 monoclonal antibody (antibody, V domains shown) VH: EVQLVESGGGLVKPGGSLRLSCAASGFTFSDYYMSWIRQAPGKGLEWVSYISSSSSYTNYADSVKGRFTISRDNAKNSLYLQMNSLRAEDTAVYYCASNVDTAMVGAFDIWGQGTLVTVS VL: DIEMTQSPSSVSASVGDTVTITCRASQHISNWLAWYQQKPGQAPKFLIYTASNLQSGVPSRFSGSGYGTDFTLTISGLQPEDFATYYCQQADSFPLTFGGGTKVDIK : its Kd reads 35.8 nM

Noted for clone 4-4 IgG1 monoclonal antibody (antibody, V domains shown) VH: EVQLVESGGGLVKPGGSLRLSCAASGFTFSDYYMSWIRQAPGKGLEWVSYISSSSSYTNYADSVKGRFTISRDNAKNSLYLQMNSLRAEDTAVYYCASNVDTAMVGAFDIWGQGTLVTVS VL: DIEMTQSPSSVSASVGDTVTITCRASQHISNWLAWYQQKPGQAPKFLIYTASNLQSGVPSRFSGSGYGTDFTLTISGLQPEDFATYYCQQADSFPLTFGGGTKVDIK : its Kd reads 1.56 nM

Noted for anti-DR3 3-18 monoclonal antibody (antibody, V domains shown) VH: QVQLQQSGPGLVKPSETLSLTCTVSGGSISSSSYYWGWIRQPPGKGLEWIGSIYYSGSTYYNPSLKSRVTISVDTSKNQFSLKLSSVTAADTAVYYCARQVSGPLDYWGQGTLVTVS VL: DIVMTQSPSSLSASVGDRVTITCRASQGIRNDLGWYQQKPGKAPKLLIYAASSLQSGVPSRFSGSGSGTDFTLTISSLQPEDFATYYCLQDYNYPRTFGQGTKVEIK : its Kd reads 0.0463 nM
